Data origin: ChEMBL document CHEMBL1201862

system: M14; experiment: NCI tumour cell line growth inhibition, 48 h
The source made the active and inactive calls. No stated cut-off is given here; in the data, active = GI50 up to about 1.1 µM and inactive = higher.
Your answer must be one of the following: yes (1) for active, no (0) for inactive

// known answers, use as guide
O=C(O)c1nc(-c2ccccc2)[nH]c1C(=O)O: no (0)
O=C(/N=C1/OC(CN2CCOCC2)CN1C(=O)Nc1ccccc1)Nc1ccccc1 (stereo not drawn): no (0)
CN(CCO)CCCC1COc2ccccc2O1 (stereo not drawn): no (0)
CC(C)(C)c1cc(OCc2nnc(S)n2N)c(Cl)cc1OCc1nnc(S)n1N: no (0)

Task: State the result this test recorded for C=CC[C@@H](N)C(=O)N(C)[C@@H](C)[C@@H](O)c1ccccc1 .
Result: no (0)

Task: Record lookup: outcome of this test for O=c1c2cc(Br)ccc2oc2ccc(Br)cc12 ?
Result: no (0)

Task: So what was the verdict on CN(N=O)C(=O)Nc1ccc(C(=O)O)cc1 in this test?
Result: no (0)

Task: State the result this test recorded for O=C(O)C1(C(=O)O)CCN(S(=O)(=O)c2ccccc2)CC1 .
Result: no (0)

Task: Assay result, entry Cc1nc(N(C(C)C)C(C)C)c(C(C)C)o1 — outcome?
Result: no (0)

Task: Query: recorded result category for Cc1cc(-c2nc3ccc(F)cc3s2)ccc1NC(=O)C(N)CCCCN (stereo not drawn) in this test
Result: no (0)

Task: Outcome? CCO/C=C/C(C)C1(C(=O)OCC)CCCCC1=O (stereo not drawn)
Result: no (0)

Task: Test call for this compound, please: O=C(CCCn1ccnc1[N+](=O)[O-])NCCn1cncc1[N+](=O)[O-]
Result: no (0)

Task: # fetch the recorded call for CCCCCCCCCCCCCCCCCc1cc(Cl)nc(Cl)n1 here
Result: no (0)

Task: I would be grateful if you could indicate the recorded call for Clc1ccc(COC(Cn2ccnc2)c2ccc(Cl)cc2Cl)cc1 (stereo not drawn) .
Result: no (0)

Task: What call does the record list for CC1=C(N2CC2)C(=O)C(C)=C(N2CC2)C1=O ?
Result: yes (1)

Task: Can you look up the reported call for COC(=O)/C=C(C)/C=C/C1OC(C)OCC1O (stereo not drawn) for me?
Result: no (0)

Task: Entry Nn1c(CCCCCCCCc2nnc(COc3c(O)ccc4ccccc34)n2N)nnc1COc1c(O)ccc2ccccc12 : call = ?
Result: no (0)

Task: Hi, sorry to bother you, what did the test record for COc1cc2c(c(OC)c1OC)-c1ccc(SC)c(=O)cc1C(CC(=O)Oc1ccc([N+](=O)[O-])cc1)C2 (stereo not drawn) ?
Result: yes (1)

Task: Hey, what did the test say about Cc1cccc(C)c1NC(=O)C(=O)C(C#N)c1ccccc1 (stereo not drawn) ?
Result: no (0)

Task: Answer briefly: the call reported for CC1=CC(C)C(O)C(C)/C=C\C(O)C/C=C(/C)C(=O)CC(O)C(C)\C=C/C=C\C=C/C(=O)NC2=C(O)C(=O)c3c(cc(C)c(O)c3C1=O)C2=O (stereo not drawn) in this assay.
Result: no (0)

Task: # lookup: test call for O=C1CCCC/C(=C/c2ccccc2)N1
Result: no (0)
